Tested on: SR leukemia
PROCEDURE_SUMMARY: NCI-60 one-dose screen, 48 h (100 = growth as untreated, 0 = no growth, -100 = all killed)
ASSAY_SETUP: 10 µM unless noted
Compounds without any hit were thinned out: in the full panel of roughly 83,000, 20% have a hit.
ASSAY_METRIC: growth (%)
Answers are plain numbers, in %.

1. COc1ccc(NC(=O)Cn2c(/C=C/c3cccc(Br)c3)nc3ccccc3c2=O)cc1    78.3
2. O=C(N/N=C/c1c[nH]c2ccccc12)Nc1ccc(F)c(Cl)c1    19.3
3. Cc1ccc(-c2cc(-c3ccccc3)[nH]c(=O)c2C#N)cc1    73.3
4. CN(C)c1nc(NCCNS(=O)(=O)c2ccc(C3=Nc4c(N)nc(N)nc4NC(c4ccc(C(F)(F)F)cc4)C3)cc2)nc(N2CCOCC2)n1 (centres undefined)    3.12
5. O=C(Cn1c(/C=C/c2ccc([N+](=O)[O-])cc2)nc2ccccc2c1=O)Nc1ccccc1    88.1
6. COc1ccccc1NC(=O)c1ccc(NC(=O)CCl)s1    2.06

Need growth for each of these molecules.
1. CC(C)C[C@H](NC(=O)CNC(=O)C[C@H]1O[C@@H]2OC3(C)CC[C@H]4[C@H](C)CC[C@@H]([C@H]1C)[C@@]24O3)B(O)O
2. COc1ccc2c(c1)C(Sc1ccc(Cl)cc1)c1c(nc(N)c(C#N)c1N)O2 (centres undefined)
3. C[C@H](NC(=O)c1ccc2c(-c3ccc(C(F)(F)F)cc3)cccc2c1)c1ccccn1

Result:
1. 9.06
2. -3.94
3. 33.3
